# Test system: Mycobacterium tuberculosis
# Test description: Antitubercular activity against Mycobacterium tuberculosis H37Rv incubated for 6 days by alamar blue assay
# Type: functional
# Test conditions: 144 h, time 6 day
Measure name: MIC99

record_smiles=CN(C)c1cc2[nH]c(C3CCCC3)nc2cc1NC(=O)C1CCC1 system_name="Mycobacterium tuberculosis" result="> 10 µg/mL"
record_smiles=CCC(CC)C(=O)Nc1cc2nc(C3CCCC3)[nH]c2cc1N(C)C system_name="Mycobacterium tuberculosis" result="> 50 µg/mL"
record_smiles=CCCCOC(=O)Nc1cc2nc(C3CCOCC3)[nH]c2cc1N(C)C system_name="Mycobacterium tuberculosis" result="> 2.5 µg/mL"
record_smiles=CCCCOC(=O)Nc1cc2nc(Cc3ccccc3)[nH]c2cc1N(C)C system_name="Mycobacterium tuberculosis" result="< 0.078 µg/mL"
record_smiles=CCCCOC(=O)Nc1cc2nc(-c3cccs3)[nH]c2cc1N(C)C system_name="Mycobacterium tuberculosis" result="> 10 µg/mL"

All values here come from ChEMBL document CHEMBL4673192.
